- Tested on: U2OS
- protocol notes: Incucyte cell viability with U2OS; also: unitless GR value; below 1 slowed growth and below 0 cell loss
- Format: toxicity, cell-based
- condition: human, 24 h, 10 µM, compound concentration 10 uM, replicate number 2
Below is a list of entries, each paired with its recorded Growth Rate value.
Respond numerically, and do not add a unit to the figure.

Some entries whose results are on file:
compound	subject of test	recorded measurement
COC(=O)c1ccc2c(c1)NC(=O)/C2=C(\Nc1ccc(-c2nccn2C)cc1)c1ccccc1	U2OS	0.46
N#CN1CC[C@H](C(=O)Nc2nc3c(s2)CN(C(=O)CN=[N+]=[N-])CC3)C1	U2OS	0.89
Cl.N/C(=N\C(=O)c1nc(Cl)c(N)nc1N)NCc1ccccc1 [BENZAMIL HYDROCHLORIDE]	U2OS	0.94
COc1cc(-c2cc3ncccc3c(OC[C@H]3CNC(=O)C3)n2)cc(OC)c1OC1CCOCC1.O=C(O)C(F)(F)F	U2OS	0.75
CCC(C(=O)Nc1ccc(-c2cc3ccccc3s2)c(C(N)=O)c1)c1nccs1 (stereo not drawn)	U2OS	0.86

[in] Fill blank: measured Growth Rate of the compound `CN(C)[C@H]1C[C@H](n2cnc(-c3ccc(F)cn3)c2-c2ccnc3[nH]ccc23)C1` is ____.
[out] 0.85

[in] Fill blank: measured Growth Rate of the compound `CCN1CCN(Cc2ccc(NC(=O)c3ccc(C)c(Oc4ccnc5[nH]ccc45)c3)cc2C(F)(F)F)CC1.Cl.Cl.Cl.O` is ____.
[out] 0.04

[in] Fill blank: measured Growth Rate of the compound `Cc1cc(Cn2c(N3CC4(CNC4)C3)nc3cc(Cl)cc(N4CCN(C)CC4)c32)cc(C)c1F` is ____.
[out] 0.96

* * *

- Tested on: Fibroblast
- protocol notes: Incucyte cell viability with human fibroblast; also: unitless GR value; below 1 slowed growth and below 0 cell loss
- Format: toxicity, cell-based
- condition: 18 h, 10 µM, compound concentration 10 uM, replicate number 1
Dear colleague, classification is by Growth Rate, with ranges listed here: one (below -0.04), two (-0.04 to below 0.5), three (0.5 or more)

[in] Categorize the following entry: `C#Cc1cnc2[nH]cc(-c3cccc4c3CCN4C(=O)[C@@H]3CCCN3C#N)c2c1`
[out] one

[in] Categorize the following entry: `Cc1ccc(S(=O)(=O)Nc2ccc(-n3nc(C(F)(F)F)cc3C(F)(F)F)cc2)cc1`
[out] three

* * *

- System: Fibroblast
- protocol notes: Incucyte cell viability with human fibroblast; also: unitless GR value; below 1 slowed growth and below 0 cell loss
- Type: toxicity, cell-based
- condition: 6 h, 10 µM, compound concentration 10 uM, replicate number 2
Returns yes if the recorded Growth Rate is greater than or equal to 0.3, and no otherwise.

Solved cases (2 shown):
compound	cat
C[C@H](C[C@H](N)C(=O)O)C(=O)O [2S,4R-4-METHYLGLUTAMATE]	yes
C[C@@H](CO)CCC[C@@H](C)[C@H]1CC[C@H]2[C@@H]3CC=C4C[C@@H](O)CC[C@]4(C)[C@H]3CC[C@]12C	yes

[in] Does the compound `Cc1nccn1-c1ccc(Sc2cccc(C3(C(N)=O)CCOCC3)c2)cc1` have recorded Growth Rate that is 0.3 or more?
[out] no

[in] Does the compound `CCN(c1ccccc1)c1cc(NC)[n+](C)c(C)n1.[Cl-]` have recorded Growth Rate that is 0.3 or more?
[out] no

[in] Does the compound `CCN1C(=CC(C)=O)Sc2ccc(OC)cc21` have recorded Growth Rate that is 0.3 or more?
[out] yes
